Measured melting point, listed per entry for reference.

{"compound": "c1ccc(-c2n[nH]cc2-c2ccnc(-c3ccc(OCCn4ccnc4)cc3)c2)nc1", "measured.endpoint": "melting point", "data.value": "108 °C"}
{"compound": "CCCn1c(=O)c2c(nc(/C=C/c3ccco3)n2C)n(CCC)c1=O", "measured.endpoint": "melting point", "data.value": "161 to 162 °C"}
{"compound": "FC(F)c1nc2ccccc2n1-c1nc(Nc2ccccn2)nc(N2CCOCC2)n1", "measured.endpoint": "melting point", "data.value": "230 to 232 °C"}

Value of measured melting point for the entry `Cn1nc2c(sc3ccccc32)c1N` : 233 °C

Value of measured melting point for the entry `CCCCNC(=O)c1nc2ccc(OC)cc2[nH]1` : 125 to 126 °C

Value of measured melting point for the entry COC(=O)C1CN(C(C)=O)c2ccccc2CN1S(=O)(=O)c1ccc(OC)cc1 (stereo not given) : 150 to 155 °C

Value of measured melting point for the entry `CN1CCN(S(=O)(=O)CCCOc2ccc3ncnn3n2)CC1` : 140 to 141 °C

Value of measured melting point for the entry CCOC(=O)c1cnn(-c2ccc(OCC(C)CC)c(C#N)c2)c1 (stereo not given) : 104 °C

Value of measured melting point for the entry CC(C(=O)O)c1ccc2cc(O)ccc2c1 (stereo not given) : 186 to 188 °C

Value of measured melting point for the entry `O=C(c1ccccc1)N1CCC(Cc2ccccc2)(C(=O)O)CC1` : 183 to 189 °C
